Would you mind telling me the reported activation of each entry?
biological target: Thyrotropin-releasing hormone receptor (Homo sapiens) (UniProt P34981); experiment: qHTS for Small Molecule Agonists and Allosteric Enhancers of Human TRH Receptor: Validation Screen for Agonists (AID 493127); conditions: TRH receptor agonist cell assay; at 2 µM; active compounds read high;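 note: intracellular calcium rise by fluo-8 fluorescence before TRH EC20 addition; 0% is about no effect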
Sequence (P34981 whole entry, looked up): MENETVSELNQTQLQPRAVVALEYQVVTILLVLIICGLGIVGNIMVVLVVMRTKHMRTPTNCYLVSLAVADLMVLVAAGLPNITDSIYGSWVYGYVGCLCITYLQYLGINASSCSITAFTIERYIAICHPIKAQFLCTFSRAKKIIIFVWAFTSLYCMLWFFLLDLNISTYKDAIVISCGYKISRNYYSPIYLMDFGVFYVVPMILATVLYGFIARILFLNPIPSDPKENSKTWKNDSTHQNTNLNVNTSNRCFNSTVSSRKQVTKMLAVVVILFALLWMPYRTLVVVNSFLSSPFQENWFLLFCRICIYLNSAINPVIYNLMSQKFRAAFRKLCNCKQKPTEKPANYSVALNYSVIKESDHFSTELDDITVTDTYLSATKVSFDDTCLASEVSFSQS
Write the value in % as a bare number.

Give its activation value. Item: CC(C)=CCC/C(C)=C/CC/C(C)=C/CSc1ccccc1C(=O)O
1.12

Give its activation value. Item: O=S(=O)(NCCNC/C=C/c1ccc(Br)cc1)c1cccc2cnccc12
5.62

Give its activation value. Item: Cc1ccc(OCC(O)C(C)NC(C)C)c2c1CCC2 (stereo unspecified)
2.81

Give its activation value. Item: Cc1cccc(C)c1NC(=O)C[N+](C)(C)C
-0.0625

Give its activation value. Item: COC(=O)c1c(-c2cc(OC)c(OC)c(OC)c2)c2ccnc(OCc3ncccn3)c2c(=O)n1Cc1ccnc(C)c1
0.438

Give its activation value. Item: COc1cc2c(cc1C(F)(F)F)N(C(=O)Nc1cc(F)cc(-c3cccnc3)c1)CC2
5.25

Give its activation value. Item: N#C/C(=C\c1ccc(O)c(O)c1)C(=O)Nc1ccccc1
5.88

Give its activation value. Item: C[N+](C)(C)CCC(=O)c1cccc2ccccc12
3.69

Give its activation value. Item: C1CCC(N=C(NC23CC4CC(CC(C4)C2)C3)N2CCOCC2)CC1
1.31

Give its activation value. Item: CN(C)CCCCSC(=N)N
1.19

Give its activation value. Item: COc1ccc2c(c1)c(CC(=O)N1CCOCC1)c(C)n2C(=O)c1ccc(Cl)cc1
1.25

Give its activation value. Item: CCCn1c(=O)c2[nH]c(-c3ccc(OCC(=O)Nc4ccc(C#N)cc4)cc3)nc2n(CCC)c1=O
0.938

Give its activation value. Item: Nc1c(S(=O)(=O)O)cc(Nc2ccc(Nc3nc(Cl)nc(Nc4ccc(S(=O)(=O)O)cc4)n3)c(S(=O)(=O)O)c2)c2c1C(=O)c1ccccc1C2=O
1.5

Give its activation value. Item: Cc1cccc(/C=C/c2ccccc2)n1
-7

Give its activation value. Item: O=C(Nc1cc(C(=O)Nc2ccc(S(=O)(=O)O)cc2S(=O)(=O)O)cc(C(=O)Nc2ccc(S(=O)(=O)O)cc2S(=O)(=O)O)c1)Nc1cc(C(=O)Nc2ccc(S(=O)(=O)O)cc2S(=O)(=O)O)cc(C(=O)Nc2ccc(S(=O)(=O)O)cc2S(=O)(=O)O)c1
0.312

Give its activation value. Item: NC(CCC(=O)NCS(=O)(=O)O)C(=O)O (stereo unspecified)
1.56
